# test description: Plasma pharmacokinetics of belinostat, 48-hr CIVI, cycle 1
# Assay type: in vivo, human
# recorded conditions: human, plasma, intravenous, Mean clearance, 48-hr CIVI, cycle 1, all patients
experimental readout: clearance
Kindly report the value followed by its unit.

O=C(/C=C/c1cccc(S(=O)(=O)Nc2ccccc2)c1)NO [belinostat] has a reported clearance of 2220 mL/min

====

# test description: Plasma pharmacokinetics of belinostat, 48-hr CIVI, cycle 1
# Format: in vivo, human
# recorded conditions: human, plasma, intravenous, Mean half-life, 48-hr CIVI, cycle 1, n=25
experimental readout: half-life
# number then unit; no other words

Given item O=C(/C=C/c1cccc(S(=O)(=O)Nc2ccccc2)c1)NO [belinostat] , the value recorded as its half-life is 28.2 min

====

# test description: Plasma pharmacokinetics of belinostat, 48-hr CIVI, cycle 1
# Type: in vivo, human
# recorded conditions: human, plasma, intravenous, Half-life, range, 48-hr CIVI, cycle 1, n=25
experimental readout: half-life

GET /value?item= O=C(/C=C/c1cccc(S(=O)(=O)Nc2ccccc2)c1)NO [belinostat] &field=half-life returns 12 to 54.6 min
